target: β-secretase (BACE) (Homo sapiens)
Construct: purchased Panvera
Sequence (P56817 46-501): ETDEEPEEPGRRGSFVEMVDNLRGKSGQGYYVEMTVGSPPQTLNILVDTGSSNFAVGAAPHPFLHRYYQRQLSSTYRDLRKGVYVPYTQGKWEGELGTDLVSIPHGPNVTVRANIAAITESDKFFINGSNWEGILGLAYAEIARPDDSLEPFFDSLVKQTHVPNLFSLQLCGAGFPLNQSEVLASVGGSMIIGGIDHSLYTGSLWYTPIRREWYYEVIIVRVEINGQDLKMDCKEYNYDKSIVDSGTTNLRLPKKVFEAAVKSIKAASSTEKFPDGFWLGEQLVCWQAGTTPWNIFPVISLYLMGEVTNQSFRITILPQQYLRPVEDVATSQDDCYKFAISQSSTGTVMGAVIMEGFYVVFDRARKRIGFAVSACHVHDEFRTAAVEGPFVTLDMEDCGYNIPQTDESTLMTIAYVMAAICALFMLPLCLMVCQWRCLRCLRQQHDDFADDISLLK
assayExplanation: BACE FS1 % Inhibition Assay
Assay type: biochemical
conditionSummary: 3 μM test compound
Property: % Inhibition (FS); scope: individual compounds

Please review the following examples before continuing.
Cc1cc(C(=O)NCCN2Cc3cc(-c4cccc(CO)c4)ccc3N=C2N)c(C)o1 [Compound 589]
<30%
NC1=Nc2ccc(Oc3ccccc3)cc2CN1CCNC(=O)CCc1ccccc1 [Compound 155]
<30%
CN(C(=O)c1cccc(CN2Cc3cc(Oc4ccccc4CC(N)=O)ccc3N=C2N)c1)C1CCCCC1 [Compound 235]
<30%
COc1ccccc1-c1ccc2c(c1)CN(CCNC(=O)CN)C(N)=N2 [Compound 490]
<30%

Please provide the recorded % Inhibition (FS) for CCCC(CCCC(=O)NC1CCCCCC1)N1Cc2cc(Oc3ccccc3)ccc2N=C1N (stereo not shown) [Compound 137] , tested on β-secretase (BACE) (Homo sapiens).
82%

Please provide the recorded % Inhibition (FS) for NC1=Nc2ccc(Oc3c(F)cccc3F)cc2CN1CCC(=O)NC1C2CC3CC(C2)CC1C3 (stereo not shown) [Compound 529] , tested on β-secretase (BACE) (Homo sapiens).
66%

Please provide the recorded % Inhibition (FS) for NC1=Nc2ccc(-c3ccncc3)cc2CN1CCNC(=O)C1CCCCC1 [Compound 576] , tested on β-secretase (BACE) (Homo sapiens).
<30%

Please provide the recorded % Inhibition (FS) for COc1ccc(Sc2ccc3c(c2)CN(Cc2cccc(C(=O)N(C)C4CCCCC4)c2)C(N)=N3)cc1OC [Compound 411] , tested on β-secretase (BACE) (Homo sapiens).
55%

Please provide the recorded % Inhibition (FS) for NC1=Nc2ccc(Oc3ccccc3)cc2CN1C(CC(=O)NC1CCCCC1)c1ccccc1 (stereo not shown) [Compound 299] , tested on β-secretase (BACE) (Homo sapiens).
<30%

Please provide the recorded % Inhibition (FS) for NC1=Nc2ccc(Oc3ccccc3)cc2CN1Cc1cccc(C(=O)NC2CCCCC2)c1 [Compound 451] , tested on β-secretase (BACE) (Homo sapiens).
<30%

Hey, just so you know, these numbers are from patent US8426429B2.
